- method.summary: TNF-a-driven NF-kB reporter inhibitors, primary screen, selectivity assay for NOD1/NOD2 signaling inhibitor project, cell-based, HEK293T NF-kB-Luc, luminescence (AID 1852)
- measurement.conditions: TNF-a induced, 14 h, at 4 µM
Screen size: about 2,500 compounds; about 1,100 (44%) were called active.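 The calls were made as follows: active = inhibition above 50% at 4 µM in the single-point screen; inactive = inhibition of 50% or less.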 The set was probably picked from earlier hits. This is one part of the list.
The reply should name one outcome from active, inactive

>  <smiles.data>
COc1ccc(Cc2[nH]n3c(=O)c(Cl)c(C)nc3c2-c2ccccc2)cc1

>  <class.name>
active

$$$$
>  <smiles.data>
COc1nc(Nc2nc3ccccc3c(=O)[nH]2)nc2ccc(C)cc12

>  <class.name>
active

$$$$
>  <smiles.data>
Oc1c(N=NC(=S)Nc2ccccc2F)c2ccccc2n1Cc1ccccc1F

>  <class.name>
inactive

$$$$

# lookup: test call for `C=CCn1c(O)c(N=NC(=S)Nc2cccc(C)c2)c2ccccc21` inactive

Try this compound next: `C=CCn1c(O)c(N=NC(=S)Nc2ccc(OC)c(Cl)c2)c2ccccc21` inactive

Try this compound next: `CNC(=O)COC(=O)c1ccccc1C(=O)c1ccc(Cl)c([N+](=O)[O-])c1` active

Try this compound next: `O=C(CN1CCOCC1)Nc1nc(-c2ccc3c(c2)CCN3S(=O)(=O)c2ccccc2)cs1` inactive

Try this compound next: `CC(C)(C)CC(=O)Nc1ccc(S(=O)(=O)N2CCCC2)cc1` inactive

Try this compound next: `CCn1c(SCC(=O)Nc2ccc(OC)cc2)nc2nc3c(cc2c1=O)CCCC3` inactive

====

- method.summary: TNF-a-driven NF-kB reporter inhibitors, primary screen, selectivity assay for NOD1/NOD2 signaling inhibitor project, cell-based, HEK293T NF-kB-Luc, luminescence (AID 1852)
- measurement.conditions: TNF-a induced, 14 h, at 4 µM, stronger effect = higher value
Screen size: about 2,500 compounds; about 1,100 (44%) were called active. So high a share suggests a set chosen from earlier hits. The list shows a part of the results.
Classify as follows. Reported inhibition greater than or equal to 70%: Yes. Reported inhibition below: No.

>  <compound>
CC(C)n1c(CN(C)Cc2ccccc2)nc2c1c(=O)n(C)c(=O)n2C

>  <class.name>
No

$$$$

Check this compound for inhibition at or above 70%: `CCOC(=O)c1ccc(NC(=O)Cn2ncc(Cl)c(Cl)c2=O)cc1` No

Try this compound next: `Clc1ccc(Nc2ncnc3ccc(Br)cc23)cc1` No

Try this compound next: `O=C1CN(C(=O)Cn2ncc(Cl)c(Cl)c2=O)c2ccccc2N1` No

Try this compound next: CC1=C(C(=O)OCc2ccc3c(c2)OCO3)C(c2ccccc2)NC(=O)N1 (stereo unspecified) Yes

Try this compound next: C=C(C(=O)c1ccccc1)C(CC(=O)c1ccccc1)c1ccccc1 (stereo unspecified) No

Try this compound next: CCS(=O)(=O)c1ccc2oc(SCC(=O)NC3CCCC(C)C3C)nc2c1 (stereo unspecified) No

Try this compound next: CCOC(=O)C1CCCN(C(=O)c2ccc3c(=O)n(CCOC)c(=S)[nH]c3c2)C1 (stereo unspecified) No

====

Quick reference for inhibition among some compounds
- method.summary: TNF-a-driven NF-kB reporter inhibitors, primary screen, selectivity assay for NOD1/NOD2 signaling inhibitor project, cell-based, HEK293T NF-kB-Luc, luminescence (AID 1852)
- measurement.conditions: TNF-a induced, 14 h, at 4 µM, stronger effect = higher value
In all, about 2,500 compounds went through this assay and about 1,100 (44%) were called active. The set was probably picked from earlier hits. The list shows a part of the results.
Return type: number; implicit unit %.

>  <compound>
COc1ccc(C(=O)N/N=C(\C)c2ccccn2)cc1OC

>  <inhibition [%]>
106

$$$$
>  <compound>
Cc1ccc(-c2csc(NC(=O)c3ccc4c(=O)n5c(nc4c3)CCCCC5)n2)cc1

>  <inhibition [%]>
97.1

$$$$
>  <compound>
Oc1c(Cl)cc(Cl)cc1/C=C/c1ccc2cccc(O)c2n1

>  <inhibition [%]>
37.4

$$$$
>  <compound>
Cc1ccc(-c2csc(NC(=O)C3=NN(c4ccccc4)C(=O)CC3)n2)cc1

>  <inhibition [%]>
38.6

$$$$
>  <compound>
O=C(NC(=S)N1CCN(c2ccc(F)cc2)CC1)c1cccs1

>  <inhibition [%]>
11.7

$$$$

Now for the compound whose inhibition we want.
I am curious: what inhibition value has been reported for COc1ccc(NC(=O)/C(Cl)=C(/Cl)S(=O)Cc2ccccc2Cl)cn1 (configuration not stated) ? 98.2
